Where do these numbers come from? They come from the DeepSol protein solubility set.

# assay-details: soluble on expression in E. coli; label from the status in PepcDB or PDB records
property-name: soluble on expression in E. coli

>>> result("INIEIAYAFPERYYLKSFQVDEGITVQTAITQSGILSQFPEIDLSTNKIGIFSRPIKLTDVLKEGDRIEIYRPLLADPKEIRRK")
"not soluble"
>>> result("YWGPLDVGEAKSLPGMEDPKLVYIPSIAPSNMVLYRGDKYSELDGKILVGALKLTHINVVGINDGKLTESQRLLEKLGERIRDITISPDGYIYFSTDSGKIFRLTEQ")
"not soluble"

###

# assay-details: soluble on expression in E. coli; label from the status in PepcDB or PDB records
property-name: soluble on expression in E. coli

Some sequences with known soluble on expression in E. coli results, for comparison:
>>> result("MEEVSSEMEVEVQNRQLSDSSPAQNVKKFGLKNSIQTNFGSDYVFQIVPKIDWTAIAVSLSTNTVKLYSPVTGQYYGECKGHSDTVNQIAFSSDSAASPHVLHSCSSDGTIRSWDTRSFQQVSRIDTGNDQEIFSFSYGGAADNLLAGGCKEQVLLWDWRNSKQVACLEESHMDDVTQVHFVPNKPNKLLSASVDGLICLFNTEGDINDDDHLESVINVGTSIGKIGFLGDGYKKLWCLTHIETLSIWNWEDGSCEVNLEKARELASDSWTQDNVDYFVDCHCPGGEDLWVIGGTCAGTVGYFPVNYKQPGSIGTAEAILGGGHIDVVRSVLQMPGEYGGAAGLFGWTGGEDGRLCCWKSDEDATEINRSWTSSELVVKPPRNRKKNRHSPY")
"not soluble"
>>> result("MSEQIRLENLTIFMQRRAVKHVYLRVHPPDGRVTLVAPTGMRLEVVRAFVTAKLDWIHKQQAKLQAQVREVPRQFIGGESHTVWGRHYVLQVVEKSAGPCVLMDQQTITLQVRPGSDLFKRAAVMHAWHKSLLHAVVPDLIGKWQDRLGVSVSAYFLQQMKTRWGSCNTRRRHIRLNTDLVRKPQDLLEYVVVHELVHLIEPSHNKRFVGLMDQHYPAWREATAELNQIPLSAIRPRGLEHHHHHH")
"not soluble"
>>> result("MINIYYNVEPLRSNEEITDFVNKARNGTHGERNALLILIGLNTGLRMSDILNLKVGQIRYHDIVHITEKKTKKRRVILLTRLRPQINHYIKDLPDNEYLFTNRQHQPLSVNAVYKLFQTIARKMHRTDIGTHTLRKTFGYHYYQQTHDIGTLMMIFNHSNEAITKRYIGLNQDVILKQMAGFQLGLEYEKATNMR")
"not soluble"
>>> result("MGSDKIHHHHHHMASNITGFELFKSNPNWQELPDSFWEFCSAHGRVRHYAAKQFLFFFGEESNSVYFLLKGRIQILLMSEFTEKIFRILQPPAFFPEVVLDSKTYPYAALTAEASDVFVLDRKALVQYFKENPSTLLPFYQNMALDLRRAYRQIKNIALGDARSRLGAKLFALAHVHGQETPEGILITVPLTATELAGMCSLARESVSRILSELRDLGILKMEKKQITISDLEQLRSWIHERQNSL")
"not soluble"

As a next step, examine the sequence that follows.
Look up soluble on expression in E. coli for this sequence: MGSDKIHHHHHHMNDYLDDYEFNNLDFYRKNHGLQLYYNWSGEICWQETPDKPQEKLFSIIGMNATKVFLKPDPEHGEVGYRINRELGLFCDPDTQEILHSWKSPTASQPVPVVHIANRIVQGSVKPKKFVIPKGKGYITSVMEIPLEYPHPLAGDSKYLDYCPGEKFKGVEYFISNTCRPDATEVPPAKWARDCPWMPWMKLGYAHPAKLRFETTIFRVDSFEQLHPSLVNLVREKVPIYEFTPTESDEPNVTSIQYFKKNFESYLRGDIFPLEERY not soluble
